The measured values listed here are drawn from patent US20100221763A1.

# Cloned Sialyltransferase Activities α2,3(N) ST % per entry
- measuredTarget: Rat recombinant α2,3(N)ST (Rattus norvegicus, UniProt Q02734)
- Construct: purchased Calbiochem
- Sequence (Q02734 29-374 limits assumed): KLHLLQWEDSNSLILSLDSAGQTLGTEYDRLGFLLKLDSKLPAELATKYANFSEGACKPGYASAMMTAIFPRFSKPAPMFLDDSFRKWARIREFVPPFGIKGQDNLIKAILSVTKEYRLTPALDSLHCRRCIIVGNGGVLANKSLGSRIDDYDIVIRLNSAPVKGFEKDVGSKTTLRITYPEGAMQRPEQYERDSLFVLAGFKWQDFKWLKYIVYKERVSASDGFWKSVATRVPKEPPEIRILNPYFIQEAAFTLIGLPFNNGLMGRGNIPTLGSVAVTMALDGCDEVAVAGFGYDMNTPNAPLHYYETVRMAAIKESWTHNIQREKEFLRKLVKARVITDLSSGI
- measurementProtocol: Sialyltransferase assay with cloned α2,3(N)ST
- Type: biochemical
- conditionDetails: Table III; compound 7.5 mM; 100% = 38140 CPM (Galβ1,4GlcNAcβ1,6(3-O-MeGalβ1,3)GalNAcα-O-Bn)
The response must be a number in % with no trailing unit.

Example entries begin here.
# input I have this compound here, `CC(=O)N[C@H]1[C@H](OC[C@H]2O[C@H](OCc3ccccc3)[C@H](NC(C)=O)[C@@H](O[C@@H]3O[C@H](CO)[C@H](O)[C@H](O)[C@H]3O)[C@H]2O)O[C@H](CO)[C@@H](O[C@@H]2O[C@H](CO)[C@H](F)[C@H](O)[C@H]2O)[C@@H]1O` , and I need its recorded Cloned Sialyltransferase Activities α2,3(N) ST %.
# output 7.9

# input Item: `CC(=O)N[C@H]1[C@H](OC[C@H]2O[C@H](OCc3ccccc3)[C@H](NC(C)=O)[C@@H](O[C@@H]3O[C@H](CO)[C@H](O)[C@H](O)[C@H]3O)[C@H]2O)O[C@H](CO)[C@@H](O[C@@H]2O[C@H](CO)[C@H](O)[C@H](F)[C@H]2O)[C@@H]1O`
# output 7.2

More entries:
# input I have this compound here, `CO[C@@H]1[C@H](O)[C@@H](O)[C@H](O[C@H]2[C@H](O)[C@@H](NC(C)=O)[C@H](OC[C@H]3O[C@H](OCc4ccccc4)[C@H](NC(C)=O)[C@@H](O[C@@H]4O[C@H](CO)[C@H](O)[C@H](O)[C@H]4O)[C@H]3O)O[C@@H]2CO)O[C@@H]1CO` , and I need its recorded Cloned Sialyltransferase Activities α2,3(N) ST %.
# output 99.8

# input Item: `CO[C@H]1[C@@H](O)[C@@H](CO)O[C@@H](O[C@H]2[C@H](O)[C@@H](NC(C)=O)[C@H](OC[C@H]3O[C@H](OCc4ccccc4)[C@H](NC(C)=O)[C@@H](O[C@@H]4O[C@H](CO)[C@H](O)[C@H](O)[C@H]4O)[C@H]3O)O[C@@H]2CO)[C@@H]1O`
# output 4.5

# input Item: `CO[C@@H]1[C@H](O)[C@@H](O)[C@H](O[C@H]2[C@@H](O)[C@@H](CO[C@@H]3O[C@H](CO)[C@@H](O[C@@H]4O[C@H](CO)[C@H](O)[C@H](O)[C@H]4O)[C@H](O)[C@H]3NC(C)=O)O[C@H](OCc3ccccc3)[C@@H]2NC(C)=O)O[C@@H]1CO`
# output 100.6
